Test system: Plasmodium falciparum
test_summary: In vitro antimalarial activity against Plasmodium falciparum FCR3
Assay type: functional, organism-based
pEC50: −log10 of the molar value.

# molecule, sign_qualifier, pEC50
rows = [
    ("O=C(C[C@H]1NCCC[C@@H]1O)Cn1cnc2ccc(O)cc2c1=O", "=", 8.66),
    ("O=C(C[C@H]1NCCC[C@@H]1O)Cn1c(=O)[nH]c2ccccc2c1=O", "=", 5.18),
    ("O=C(C[C@H]1NC(=O)CC[C@@H]1O)Cn1cnc2ccccc2c1=O", "<", 4.28),
    ("O=c1c2ccccc2ncn1CC1(O)C[C@@H]2NCC[C@H](O)[C@@H]2O1 (stereo partly specified)", "=", 6.82),
    ("O=C(C[C@H]1NCC[C@H](O)[C@@H]1O)Cn1cnc2ccccc2c1=O", "=", 7.66),
    ("O=c1c2cc(O)ccc2ncn1CC1(O)C[C@@H]2NCCC[C@@H]2O1 (stereo partly specified)", "=", 9.57),
]
